biological target: Bile acid receptor (Homo sapiens); test: Agonist activity at human FXR (247 to 467 residues) expressed in HEK293 cells at 100 uM incubated for 8 hrs by luciferase assay; assay type: cell-based
Active and inactive are the calls of the source. No cut-off for these calls is given here.

- Mol: "CC(C)[C@@H]1CC[C@]2(C(=O)O)CC[C@]3(C)[C@H](CC[C@@H]4[C@@]5(C)CC[C@@H](OC(=O)NC6CCC6)C(C)(C)[C@@H]5CC[C@]43C)[C@@H]12"
  Activity: "inactive"
- Mol: "CC(C)[C@@H]1CC[C@]2(C(=O)O)CC[C@]3(C)[C@H](CC[C@@H]4[C@@]5(C)CC[C@@H](OC(=O)N6CCOCC6)C(C)(C)[C@@H]5CC[C@]43C)[C@@H]12"
  Activity: "inactive"
- Mol: "CC(C)[C@@H]1CC[C@]2(C(=O)O)CC[C@]3(C)[C@H](CC[C@@H]4[C@@]5(C)CC[C@@H](OC(=O)CO)C(C)(C)[C@@H]5CC[C@]43C)[C@@H]12"
  Activity: "inactive"

---

molecular target: Bile acid receptor (Homo sapiens); assay: Agonist activity at human FXR (247 to 467 residues) expressed in HEK293 cells at 100 uM incubated for 8 hrs by luciferase assay; format: cell-based
Activity calls are given as the source filed them. No cut-off for these calls is given here.
Endpoint label: Activity

Here are 4 molecules together with their reported answers.
- Mol: "CC(C)NC(=O)O[C@@H]1CC[C@]2(C)[C@H]3CC[C@@H]4[C@H]5[C@H](C(C)C)CC[C@]5(C(=O)O)CC[C@@]4(C)[C@]3(C)CC[C@H]2C1(C)C"
  Endpoint label: "Activity"
  Result: "inactive"
- Mol: "C[C@H](O)[C@@H]1CC[C@]2(C(=O)O)CC[C@]3(C)[C@H](CC[C@@H]4[C@@]5(C)CC[C@@H](OC(=O)NC6CC6)C(C)(C)[C@@H]5CC[C@]43C)[C@@H]12"
  Endpoint label: "Activity"
  Result: "inactive"
- Mol: "CC(C)[C@@H]1CC[C@]2(C(=O)NCC(=O)O)CC[C@]3(C)[C@H](CC[C@@H]4[C@@]5(C)CC[C@@H](OC(=O)NC6CC6)C(C)(C)[C@@H]5CC[C@]43C)[C@@H]12"
  Endpoint label: "Activity"
  Result: "inactive"
- Mol: "CCCS(=O)(=O)O[C@@H]1CC[C@]2(C)[C@H]3CC[C@@H]4[C@H]5[C@H](C(C)C)CC[C@]5(C(=O)O)CC[C@@]4(C)[C@]3(C)CC[C@H]2C1(C)C"
  Endpoint label: "Activity"
  Result: "inactive"

Find the recorded Activity belonging to `CC(C)[C@@H]1CC[C@]2(C(=O)O)CC[C@]3(C)[C@H](CC[C@@H]4[C@@]5(C)CC[C@@H](OC(=O)Nc6ccc(F)cc6)C(C)(C)[C@@H]5CC[C@]43C)[C@@H]12` and report it.
inactive

---

For each of the compounds below, state its recovery at 1.583 h, 10 µM.
assay: Apparent permeability in human Caco2 cells across apical side to basolateral side assessed as drug recovery at 10 uM incubated for 95 mins by liquid chromatography-tandem mass spectrometry; assay type: ADME, cell-based; conditions: Caco-2, read-out: Drug recovery
Expressed in %, but write only the number.

Find the recorded recovery at 1.583 h, 10 µM belonging to `CCCC(=O)O[C@@H]1CC[C@]2(C)[C@H]3CC[C@@H]4[C@H]5[C@H](C(C)C)CC[C@]5(C(=O)O)CC[C@@]4(C)[C@]3(C)CC[C@H]2C1(C)C` and report it.
0

Find the recorded recovery at 1.583 h, 10 µM belonging to `C[C@H](O)[C@@H]1CC[C@]2(C(=O)[O-])CC[C@]3(C)[C@H](CC[C@@H]4[C@@]5(C)CC[C@@H](OC(=O)NC6CC6)C(C)(C)[C@@H]5CC[C@]43C)[C@@H]12.[Na+]` and report it.
84.6

---

Molecular target: G-protein coupled bile acid receptor 1 (Homo sapiens) (UniProt Q8TDU6)
Sequence (whole entry): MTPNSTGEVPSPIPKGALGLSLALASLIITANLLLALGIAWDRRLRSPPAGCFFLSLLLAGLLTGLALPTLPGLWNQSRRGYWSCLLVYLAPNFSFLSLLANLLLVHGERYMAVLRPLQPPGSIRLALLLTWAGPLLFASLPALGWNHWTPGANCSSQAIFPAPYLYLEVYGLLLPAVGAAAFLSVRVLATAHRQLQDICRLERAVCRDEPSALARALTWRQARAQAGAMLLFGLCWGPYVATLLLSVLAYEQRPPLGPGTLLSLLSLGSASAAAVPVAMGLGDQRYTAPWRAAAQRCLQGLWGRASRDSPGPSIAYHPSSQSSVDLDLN
Assay: Agonist activity at N-terminal HA-tagged human TGR5 expressed in HEK293 cells assessed as […] in intracellular cAMP levels incubated for 30 mins by Lance Ultra cAMP assay relative to control
Format: functional, cell-based
Conditions: filed as agonist
For each of the compounds below, state its Emax.
Expressed in %, but write only the number.

Find the recorded Emax belonging to `CC(C)[C@@H]1CC[C@]2(NC(=O)NCC(=O)O)CC[C@]3(C)[C@H](CC[C@@H]4[C@@]5(C)CC[C@@H](OC(=O)NC6CC6)C(C)(C)[C@@H]5CC[C@]43C)[C@@H]12` and report it.
99

Find the recorded Emax belonging to `CC(C)[C@@H]1CC[C@]2(NC(=O)OCC(=O)O)CC[C@]3(C)[C@H](CC[C@@H]4[C@@]5(C)CC[C@@H](OC(=O)NC6CC6)C(C)(C)[C@@H]5CC[C@]43C)[C@@H]12` and report it.
98

Find the recorded Emax belonging to `CCOC(=O)O[C@@H]1CC[C@]2(C)[C@H]3CC[C@@H]4[C@H]5[C@H](C(C)C)CC[C@]5(C(=O)O)CC[C@@]4(C)[C@]3(C)CC[C@H]2C1(C)C` and report it.
92

Find the recorded Emax belonging to `CC(C)[C@@H]1CC[C@]2(C(=O)O)CC[C@]3(C)[C@H](CC[C@@H]4[C@@]5(C)CC[C@@H](OC(=O)NC6CCCC6)C(C)(C)[C@@H]5CC[C@]43C)[C@@H]12` and report it.
92

Find the recorded Emax belonging to `CC1(C)[C@H](OC(=O)NC2CC2)CC[C@]2(C)[C@H]3CC[C@@H]4[C@H]5[C@H]([C@@]6(C)CO6)CC[C@]5(C(=O)O)CC[C@@]4(C)[C@]3(C)CC[C@@H]12` and report it.
99

Find the recorded Emax belonging to `CC(C)[C@@H]1CC[C@]2(C(=O)O)CC[C@]3(C)[C@H](CC[C@@H]4[C@@]5(C)CC[C@@H](OC(=O)Nc6ccc(F)cc6)C(C)(C)[C@@H]5CC[C@]43C)[C@@H]12` and report it.
75

Find the recorded Emax belonging to `CC(C)[C@@H]1CC[C@]2(N)CC[C@]3(C)[C@H](CC[C@@H]4[C@@]5(C)CC[C@@H](OC(=O)NC6CC6)C(C)(C)[C@@H]5CC[C@]43C)[C@@H]12` and report it.
97

Find the recorded Emax belonging to `COc1ccc(NC(=O)O[C@@H]2CC[C@]3(C)[C@H]4CC[C@@H]5[C@H]6[C@H](C(C)C)CC[C@]6(C(=O)O)CC[C@@]5(C)[C@]4(C)CC[C@H]3C2(C)C)cc1` and report it.
91

Find the recorded Emax belonging to `CC(C)[C@@H]1CC[C@]2(C(=O)O)CC[C@]3(C)[C@H](CC[C@@H]4[C@@]5(C)CC[C@@H](OC(=O)N6CCOCC6)C(C)(C)[C@@H]5CC[C@]43C)[C@@H]12` and report it.
95

Find the recorded Emax belonging to `CC(C)[C@@H]1CC[C@]2(C(=O)O)CC[C@]3(C)[C@H](CC[C@@H]4[C@@]5(C)CC[C@@H](OC(=O)NC6CC6)C(C)(C)[C@@H]5CC[C@]43C)[C@@H]12` and report it.
99

Find the recorded Emax belonging to `CCN(C)C(=O)O[C@@H]1CC[C@]2(C)[C@H]3CC[C@@H]4[C@H]5[C@H](C(C)C)CC[C@]5(C(=O)O)CC[C@@]4(C)[C@]3(C)CC[C@H]2C1(C)C` and report it.
92

---

molecular target: G-protein coupled bile acid receptor 1 (Mus musculus, UniProt Q80SS6); assay: Agonist activity at N-terminal HA-tagged mouse TGR5 expressed in HEK293 cells assessed as […] in intracellular cAMP levels incubated for 30 mins by Lance Ultra cAMP assay
Sequence (Q80SS6 whole entry): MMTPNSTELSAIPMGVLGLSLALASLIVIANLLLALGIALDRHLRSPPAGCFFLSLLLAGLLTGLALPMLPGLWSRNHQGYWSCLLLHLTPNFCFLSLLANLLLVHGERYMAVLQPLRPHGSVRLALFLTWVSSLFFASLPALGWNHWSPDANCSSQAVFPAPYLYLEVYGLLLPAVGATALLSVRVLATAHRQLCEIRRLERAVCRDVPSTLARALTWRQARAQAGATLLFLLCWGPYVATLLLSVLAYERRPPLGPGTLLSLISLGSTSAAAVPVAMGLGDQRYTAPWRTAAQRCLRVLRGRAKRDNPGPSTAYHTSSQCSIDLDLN
Endpoint label: pEC50
Conceptually, pEC50 converts a concentration in mol/L into minus its log10.

Find the recorded pEC50 belonging to `CCCC(=O)O[C@@H]1CC[C@]2(C)[C@H]3CC[C@@H]4[C@H]5[C@H](C(C)C)CC[C@]5(C(=O)O)CC[C@@]4(C)[C@]3(C)CC[C@H]2C1(C)C` and report it.
5.58

---

experiment: Efflux ratio in human Caco-2 cells at 10 uM by LC/MS/MS analysis; assay type: ADME, cell-based
Endpoint label: efflux ratio at 10 µM
I only need the number, thanks.

Find the recorded efflux ratio at 10 µM belonging to `C[C@H](O)[C@@H]1CC[C@]2(C(=O)[O-])CC[C@]3(C)[C@H](CC[C@@H]4[C@@]5(C)CC[C@@H](OC(=O)NC6CC6)C(C)(C)[C@@H]5CC[C@]43C)[C@@H]12.[Na+]` and report it.
0.329
